# subject-of-test: unphosphorylated VEGF-R2Δ50 (FLVK) (Homo sapiens, UniProt P35968, DEL940-989/E990V)
# Construct: VEGF-R2Δ50 contains residues 806-939 and 990-1171
# Sequence (P35968 with tags, fused parts or gaps DEL940-989/E990V limits assumed): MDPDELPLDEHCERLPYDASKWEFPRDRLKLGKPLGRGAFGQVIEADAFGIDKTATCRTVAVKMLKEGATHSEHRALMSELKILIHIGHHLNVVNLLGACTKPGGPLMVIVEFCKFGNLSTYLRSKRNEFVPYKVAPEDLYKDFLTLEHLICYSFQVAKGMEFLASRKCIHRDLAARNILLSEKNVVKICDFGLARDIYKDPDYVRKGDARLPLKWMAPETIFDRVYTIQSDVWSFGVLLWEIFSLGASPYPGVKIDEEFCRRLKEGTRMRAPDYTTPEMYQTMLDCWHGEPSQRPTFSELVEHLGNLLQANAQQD
# test-protocol: VEGF-R2 coupled spectrophotometric assay, unphosphorylated construct (FLVK)
pKi: −log10 of the molar value.
recorded-metric: pKi

[1] CNC(=O)n1c(C)cc2c(F)c(Oc3ccnc4cc(C(=O)N5CCC[C@H]5CO)sc34)ccc21
[2] CCOC(=O)c1cc2ncnc(Nc3ccc4c(c3)cc(C)n4C(=O)NC)c2s1 [Example 11a]
[3] CNC(=O)n1c(C)c(Cl)c2c(F)c(Oc3ccnc4cc(C(=O)N5CC[C@@H](OC)C5)sc34)ccc21
[4] CNC(=O)c1c(C)n(C(=O)NC)c2ccc(Oc3ccnc4cc(C(=O)N5CC[C@@H](N(C)C)C5)sc34)cc12
[5] C#CCNC(=O)n1c(C)cc2c(F)c(Oc3ccnc4cc(C(=O)N5CC[C@H](OC)C5)sc34)ccc21
Which order do these items fall in when sorted by pKi from largest to smallest? // format: requested-order list of labels
1, 5, 3, 4, 2
(1: 9.92, 5: 9.35, 3: 8.91, 4: 8.34, 2: 7.42)

[A] C#CCNC(=O)n1c(C)cc2cc(Nc3ccnc4cc(C(=O)N5CCC[C@@H]5CO)sc34)ccc21
[B] CNC(=O)n1c(C)cc2c(F)c(Oc3ccnc4cc(-c5nc(C(C)(C)O)cs5)sc34)ccc21
Which one would you say has the larger pKi value: A , or B ? Output the label that corresponds to your choice.
B

###

# test-protocol: Mouse PK assay
# Format: in vivo, B6 female mice
# setup-conditions: po
# Protocol: The pharmacokinetics (e.g., absorption and elimination) of drugs in mice were analyzed using the following experiment. Test compounds were formulated as a suspension in a 30:70 (PEG 400: acidified H2O) vehicle. […] Test-compound plasma concentrations (μg/mL) were determined by a comparison to standard curve (peak area vs. conc. μg/mL) using known concentrations of test compound extracted from plasma samples in the manner described above. […]
recorded-metric: Mouse Cmin, po (ng/mL)

[A] Cc1cc2cc(Nc3ccnc4cc(-c5nccn5C)sc34)ccc2n1C(=O)NC(C)C [Example 2f]
[B] CNC(=O)n1c(C)cc2cc(Oc3ccnc4cc(C(=O)N5CC[C@@H](O)C5)sc34)ccc21 [Example 4n]
Between A and B , which one has the lower reported Mouse Cmin, po value? Output the label that corresponds to your choice.
B
(B: 45 ng/mL, A: 163 ng/mL)

[A] Cc1cc2cc(Oc3ccnc4cc(C(=O)N5CC[C@@H](O)C5)sc34)ccc2n1C(=O)NC1CC1 [Example 4p]
[B] COC[C@H]1CCCN1C(=O)c1cc2nccc(Oc3ccc4[nH]c(C)c(C(=O)NC5CC5)c4c3)c2s1 [Example 4y]
Which one would you say has the larger Mouse Cmin, po value: A , or B ? Output the label that corresponds to your choice.
A
(A: 68 ng/mL, B: 11 ng/mL)

[I] C#CCNC(=O)n1c(C)cc2c(F)c(Oc3ccnc4cc(C(=O)N5CCC[C@H]5CO)sc34)ccc21 [Example 5e]
[II] CNC(=O)n1c(C)cc2cc(Nc3ccnc4cc(-c5nc(C(C)(C)O)cs5)sc34)ccc21 [Example 3a]
[III] Cc1cc2cc(Nc3ccnc4cc(C(=O)N5CC[C@H](O)C5)sc34)ccc2n1C(=O)NC1CC1 [Example 1k]
Returns the items ordered by Mouse Cmin, po, from maximum to minimum. // format: requested-order list of labels
II, I, III
(II: 408 ng/mL, I: 19 ng/mL, III: 0 ng/mL)
